Tested on: COLO 205 colon
Test: NCI tumour cell line growth inhibition, 48 h
endpointName: TGI

>>> df
                                   molecule  endpointname     result
0  O=C(CC1(O)C(=O)Nc2c(Cl)cc(Cl)cc21)c1ccc([N+](=O)[O-])cc1 (centres undefined)           TGI  > 92.7 µM
1  CC1=C(C(=O)NNC(=O)c2ccccc2O)CC(C(=O)NNC(=O)c2ccccc2O)=C(C)N1           TGI  > 86.8 µM
2  NS(=O)(=O)c1ccc(-n2nc(-c3ccccc3)cc2-c2cc(O)ccc2O)cc1           TGI   > 100 µM
3  O=C(O)c1ccc(Nc2nc3ccc(C(F)(F)F)cc3nc2C(=O)O)cc1           TGI   > 100 µM
4  O=C(O)C1C2C=CC(O2)C1C(=O)NCc1ccncc1 (centres undefined)           TGI   > 100 µM
5  CCOC(=O)C1=C(C)C2C3C(=O)OC(=O)C3C1(C)C1C(=O)OC(=O)C21 (centres undefined)           TGI   > 100 µM
6  CCCCCCc1cc2cc(-c3cn4ccccc4n3)c(=O)oc2cc1O           TGI   > 100 µM
7                 O=c1[nH]c(Br)nc2n[nH]nc12           TGI   > 100 µM
8  S=C1C(CCCOCc2ccccc2)C2CCCC23CC2(CCN13)OCCS2 (centres undefined)           TGI    > 10 µM

* * *

Parameter: TGI. Scope: all listed entries.
Test system: KM20L2 colon
Experiment: NCI tumour cell line growth inhibition, 48 h
endpointName: TGI

>>> df
                                    molecule      result
 0  Cc1ccc(-c2nc3ccccc3c(=O)n2NC2OC(CO)C(O)C(O)C2O)cc1 (stereo unspecified)    > 100 µM
 1  CCCCCCCCC1C(C)c2c([nH]c3ccccc23)C2C(=O)N(c3ccccc3)C(=O)C21 (stereo unspecified)     31.7 µM
 2  C[N+]1(C)C/C(=C\C=C\c2ccccc2)C(=O)/C(=C/C=C/c2ccccc2)C1     33.1 µM
 3  COC(=O)/C=C(C)/C=C/c1c(C)c(C(C)=O)c(C)n1C    > 100 µM
 4  CC(=O)C(C(=O)C(=O)Nc1cc(Cl)c(Cl)cc1Cl)c1csc(N)n1 (stereo unspecified)    > 100 µM
 5                            Nc1n[nH]c(N)n1  > 10000 µM
 6  CCCCCCCCCCCCCCCCCC(=O)NCC(COP(=O)([O-])OCC[N+](C)(C)C)OCC (stereo unspecified)     0.71 µM
 7      CC1(C)C2=CCCC(=O)[C@@]2(C)CC[C@@H]1O    > 100 µM
 8               CC(=O)OC(C)(C)C[N+](=O)[O-]    > 100 µM
 9  C/C(CC(=O)Nc1cccc([N+](=O)[O-])c1)=N/NC(N)=S    > 100 µM
10  CCC/C=C/C=C\C(=O)O[C@@H]1[C@@H](C)[C@]2(O)[C@@H]3C=C(C)C(=O)[C@H]3CC(COC(C)=O)=C[C@H]2[C@@H]2C(C)(C)[C@]12OC(C)=O     88.8 µM

* * *

Tested on: NCI-H522 lung
Assay: NCI tumour cell line growth inhibition, 48 h
Label scheme for TGI: lower than 20 µM is N, 20 µM and above is Y.

compound	labelClass
c1ccc(N2CCN(CCCN3CCc4c([nH]c5ccccc45)C3c3cccnc3)CC2)cc1 (stereo not given)	Y
Cc1cc(=O)n2c(cc3cccccc32)n1	Y
C=C1CCCC2OC(OC)CCC12 (stereo not given)	Y
CN(C)c1ccc(/C=N/n2c(CCCCc3n[nH]c(=S)n3/N=C/c3ccc(N(C)C)cc3)n[nH]c2=S)cc1	Y
NC1C2C=CC(C2)C1C(=O)O (stereo not given)	Y
CC(=O)O[C@H]1C(=O)[C@@]2(C)[C@H]([C@H](OC(=O)c3ccccc3)[C@]3(O)C[C@H](OC(=O)[C@H](O)[C@@H](NC(=O)OC(C)(C)C)c4ccco4)C(C)=C1C3(C)C)[C@]1(OC(C)=O)CO[C@@H]1C[C@@H]2O	N
CC(O)(c1ccc(OCCC[N+](C)(C)C)cc1)C(C)(O)c1ccc(OCCC[N+](C)(C)C)cc1 (stereo not given)	Y
O=[N+]([O-])c1cc(C(F)(F)F)cc2n[se]nc12	N
CCOC(=O)NC(C(F)(F)F)(C(F)(F)F)P(=O)(OCC)OCC	Y
Cc1nnc(N)nc1C/C=C/C(C)Sc1ccc(Cl)cc1 (stereo not given)	N
NCCCC(N)(C(=O)O)C(F)F (stereo not given)	Y
CCCc1nn(C)c(CCC(=O)N(Cc2ccccc2)Cc2ccccc2)c1CC	Y
Oc1c(Cl)c(Cl)c(O)c(-c2cnc(-c3ncc(-c4c(O)c(Cl)c(Cl)c(O)c4Cl)s3)s2)c1Cl	N
COc1ccccc1NC(=O)C(=O)C(c1cnc2ccc([N+](=O)[O-])cc2n1)[N+](=O)[O-] (stereo not given)	Y
COc1cc2cnc3c4cc(O)ccc4ccc3c2cc1OC	Y

* * *

Tested on: M19-MEL melanoma
Test: NCI tumour cell line growth inhibition, 48 h
endpointName: TGI

>>> print(df.to_string())
                          structureassmiles  experimentalsystem  endpointname    result
0        CCc1cc2c(Nc3ccccc3)c3c(nc2s1)CCCC3    M19-MEL melanoma           TGI  > 100 µM
1  CC1=C(C(=O)Nc2ccccc2C)C(c2ccccc2O)C(C(=O)Nc2ccccc2C)=C(C)N1    M19-MEL melanoma           TGI     52 µM
2  C[N+]1(C)C/C(=C\C=C\c2ccccc2)C(=O)/C(=C/C=C/c2ccccc2)C1    M19-MEL melanoma           TGI   31.7 µM
3          N#C/C(=C\c1ccccc1F)C(=O)c1ccccc1    M19-MEL melanoma           TGI  > 100 µM

* * *

Test system: OVCAR-5 ovarian
Assay: NCI tumour cell line growth inhibition, 48 h
As shown below, each of these molecules has a reported TGI value.
endpointName: TGI

>>> df
                                   molecule     result
0  Cc1ccc2nc(-c3nccn3C)cc(C(=O)NC(C)CN(C)C)c2c1 (centres undefined)   > 100 µM
1  Oc1c(Cl)c(Cl)c(O)c(-c2cnc(-c3ncc(-c4c(O)c(Cl)c(Cl)c(O)c4Cl)s3)s2)c1Cl    36.4 µM
2  O=C1NC(c2cccc3ccccc23)Nc2ccccc21 (centres undefined)  > 65.3 µM
3  Cc1cnc2c(c1)C(=O)N(c1ccc(Br)cc1)S2(=O)=O   > 100 µM

* * *

Known GI50 of a selection of molecules
System: SF-268 CNS
Experiment: NCI tumour cell line growth inhibition, 48 h
endpointName: GI50

molecule	experimentalSystem	result
CCCCCCCCCCCCSC1=CC(=O)C=CC1=O	SF-268 CNS	2.24 µM
NS(=O)(=O)c1ccc(-n2nc(-c3ccccc3)cc2-c2cc(O)ccc2O)cc1	SF-268 CNS	> 100 µM
CCN(CC)CCOc1ccc(NC(=O)C(C(C)C)N2C(=O)/C(=C/c3ccc(Br)cc3)SC2=S)cc1 (centres undefined)	SF-268 CNS	2.27 µM
CC[C@@]1(O)C(=O)OCc2c1cc1n(c2=O)Cc2cc3cccc(N)c3nc2-1	SF-268 CNS	2.51 µM
CN1CCN(C(=O)[C@@]2(C)CC[C@]3(C)CC[C@]4(C)C(=CC[C@@H]5[C@@]6(C)CC[C@H](OC(=O)c7cccnc7)C(C)(C)[C@@H]6CC[C@]54C)[C@@H]3C2)CC1	SF-268 CNS	1.84 µM
CCN(CC)CCNc1ccc(N=Nc2cnc3ccccc3c2)c2ccccc12	SF-268 CNS	1.74 µM
Fc1ccc(-c2c(-c3ccncc3)[nH]c3cccnc23)cc1	SF-268 CNS	> 25 µM
Cc1ccc2c(c1)C(=O)/C(=C/c1cccc(OCC(=O)c3ccc(Cl)cc3)c1)CS2	SF-268 CNS	10.4 µM
O=C1c2c(c3c4ccccc4n(CCCCCCN4CCOCC4)c3c3[nH]c4ccccc4c23)C(=O)N1O	SF-268 CNS	15.8 µM

* * *

Tested on: NCI-H226 lung
Test: NCI tumour cell line growth inhibition, 48 h
Listed here are compounds together with their documented TGI.
endpointName: TGI (µM)

>>> print(df.to_string())
                                   compound  endpointname  boundoperator  result
0  CN(CCc1ccccn1)/[N+]([O-])=N/O (tested in a mixture with another compound)           TGI              >     100
1  COc1cc(C2SCC(=O)N2c2ccc(Cl)cc2)cc(OC)c1OC (stereo not drawn)           TGI              =    98.4
2      O=C(/C=C/c1ccc(O)c(O)c1)c1ccc(O)cc1O           TGI              =    37.6
